Attribute: %inh 5-HT6 corrected*
# SYSTEM_NAME: human 5-HT6 receptor (Homo sapiens)
# Construct: expressed in transfected cells
# ASSAY_DETAILS: GPCR radioligand binding assay, [3H]-LSD displacement, HEK293 membranes
# CONDITIONS: 5-HT6; average, values below 0 and above 100% were set as 0 and 100

COMPOUND	SYSTEM_NAME	UNIT_NAME	%inh 5-HT6 corrected*
CC1C(=O)NC(=O)N1c1ccc(Cl)cc1 (centres unmarked) [E3]	human 5-HT6 receptor (Homo sapiens)	%	43
CC(=O)c1ccc2c(c1)CCCN2 [C7]	human 5-HT6 receptor (Homo sapiens)	%	9
COc1ccc(C2=CCNCC2)cc1 [G1]	human 5-HT6 receptor (Homo sapiens)	%	49
Cc1cc(-c2ccccc2)n[nH]1 [A8]	human 5-HT6 receptor (Homo sapiens)	%	48
N#Cc1ccc2ncsc2c1 [C12]	human 5-HT6 receptor (Homo sapiens)	%	35
Cc1cnc(C(F)(F)F)cn1 [B9]	human 5-HT6 receptor (Homo sapiens)	%	32
O=C1CNCCN1c1ccccc1 [B2]	human 5-HT6 receptor (Homo sapiens)	%	47
O=C(c1ccncc1)N1CCNCC1 [E2]	human 5-HT6 receptor (Homo sapiens)	%	24
CC1(C)OC(=O)c2cc(Br)c(O)cc2O1 [C6]	human 5-HT6 receptor (Homo sapiens)	%	56
O=c1ccc2c([nH]1)CCCC2 [C5]	human 5-HT6 receptor (Homo sapiens)	%	46
N#Cc1ccc(C(=O)N2CCOCC2)cc1 [E10]	human 5-HT6 receptor (Homo sapiens)	%	37
CS(=O)(=O)c1ccc(N2CCNCC2)cc1 [B1]	human 5-HT6 receptor (Homo sapiens)	%	28
NCC1(c2ccccc2)CCOCC1 [F10]	human 5-HT6 receptor (Homo sapiens)	%	23
O=c1[nH]c2c(s1)CCC2 [C10]	human 5-HT6 receptor (Homo sapiens)	%	42
O=C1CSC(Nc2ccc(F)cc2)=N1 [H10]	human 5-HT6 receptor (Homo sapiens)	%	36
CCc1ccc(NC2=NCCCS2)cc1 [D2]	human 5-HT6 receptor (Homo sapiens)	%	16
c1ccc2c(N3CCNCC3)ccnc2c1 [C4]	human 5-HT6 receptor (Homo sapiens)	%	72
c1ccc2sc(N3CCNCC3)nc2c1 [G5]	human 5-HT6 receptor (Homo sapiens)	%	42
Cc1nc(-c2ccccc2)cs1 [A7]	human 5-HT6 receptor (Homo sapiens)	%	50
Cc1nccn1Cc1cccc(C#N)c1 [F8]	human 5-HT6 receptor (Homo sapiens)	%	41
O=C(NC1CC1)c1ccccc1O [G4]	human 5-HT6 receptor (Homo sapiens)	%	24
Cc1ccc(CCNc2ccccc2)cn1 [H11]	human 5-HT6 receptor (Homo sapiens)	%	0
Cc1cc(C)c2c(=O)[nH]n(C)c2n1 [F12]	human 5-HT6 receptor (Homo sapiens)	%	34
CCc1nccn1CC(=O)O [G11]	human 5-HT6 receptor (Homo sapiens)	%	0
CC(=O)c1ccc2c(c1)CNCC2 [C8]	human 5-HT6 receptor (Homo sapiens)	%	2.55
O=C1NC2(CCCC2)Nc2ccccc21 [C9]	human 5-HT6 receptor (Homo sapiens)	%	44
O=C1CC(CSc2ccc(Cl)cc2)=NN1 [H8]	human 5-HT6 receptor (Homo sapiens)	%	12
c1ccc2oc(C3CCCNC3)nc2c1 (centres unmarked) [D10]	human 5-HT6 receptor (Homo sapiens)	%	25
Oc1ccc(-n2cncn2)cc1 [H5]	human 5-HT6 receptor (Homo sapiens)	%	36

---

# SYSTEM_NAME: human 5-HT1A receptor (Homo sapiens, UniProt P08908)
# Construct: expressed in transfected cells
# Sequence (P08908 whole entry): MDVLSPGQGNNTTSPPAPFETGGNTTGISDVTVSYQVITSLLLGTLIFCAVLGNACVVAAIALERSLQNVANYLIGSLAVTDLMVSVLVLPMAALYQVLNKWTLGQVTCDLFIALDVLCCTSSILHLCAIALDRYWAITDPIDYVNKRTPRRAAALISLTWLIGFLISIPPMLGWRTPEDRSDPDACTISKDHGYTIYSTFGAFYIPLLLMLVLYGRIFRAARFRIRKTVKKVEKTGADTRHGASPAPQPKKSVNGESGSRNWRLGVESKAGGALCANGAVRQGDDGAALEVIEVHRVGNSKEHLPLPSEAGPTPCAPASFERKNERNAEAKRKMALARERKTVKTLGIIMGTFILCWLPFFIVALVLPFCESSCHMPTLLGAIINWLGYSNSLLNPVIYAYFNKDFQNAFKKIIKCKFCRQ
# ASSAY_DETAILS: GPCR radioligand binding assay, [3H]-8-OH-DPAT displacement, HEK293 membranes
# CONDITIONS: 5-HT1A; replicate exp_1

STRUCTURE_STRING	SYSTEM_NAME	%inh 5-HT1A exp_1 (%)
C1=C[C@H]2O[C@@H]1c1ccccc12	human 5-HT1A receptor (Homo sapiens, UniProt P08908)	-11
Fc1ccc2c(C3CCNCC3)c[nH]c2c1	human 5-HT1A receptor (Homo sapiens, UniProt P08908)	87
Oc1ccc(C2CCNCC2)cc1	human 5-HT1A receptor (Homo sapiens, UniProt P08908)	3
N#CCCN1CCc2ccccc21	human 5-HT1A receptor (Homo sapiens, UniProt P08908)	-1.29
O=c1[nH]ncc2c1oc1ccccc12	human 5-HT1A receptor (Homo sapiens, UniProt P08908)	-14
O=C(Nc1ccccc1)C1CC1	human 5-HT1A receptor (Homo sapiens, UniProt P08908)	10
CCN(CC)c1cccc(C)c1	human 5-HT1A receptor (Homo sapiens, UniProt P08908)	13
CC(=O)c1ccc2c(c1)CCCN2	human 5-HT1A receptor (Homo sapiens, UniProt P08908)	-2
N#Cc1ccc(C(=O)N2CCOCC2)cc1	human 5-HT1A receptor (Homo sapiens, UniProt P08908)	-3
CCc1nccn1CC(=O)O	human 5-HT1A receptor (Homo sapiens, UniProt P08908)	3.26
CCCN1C(=O)CC(=O)NC1=S	human 5-HT1A receptor (Homo sapiens, UniProt P08908)	-9
Oc1ccc(-n2cncn2)cc1	human 5-HT1A receptor (Homo sapiens, UniProt P08908)	-9
NC(c1ccccc1)c1ccccc1	human 5-HT1A receptor (Homo sapiens, UniProt P08908)	-22
COc1ccccc1C1CCNCC1	human 5-HT1A receptor (Homo sapiens, UniProt P08908)	100

---

# SYSTEM_NAME: human thrombin (Homo sapiens, UniProt P00734)
# Construct: human thrombin; purchased Sigma-Aldrich
# ASSAY_DETAILS: Protease inhibitory assay, chromogenic substrate S-2238
# Type: biochemical
# CONDITIONS: 1 = hit, 0 = no hit; screening at 200 µM
RECORDED_ENDPOINT: experimental hit status, Thrombin

STRUCTURE_STRING	MEASURED_NUMBER
c1cnc2cccnc2c1	1
c1cnc2ncccc2c1	0
Nc1nnc2ccccn12	0
c1ccc2[nH]ccc2c1	0
Cc1cc2ccccc2nc1N	0

---

# SYSTEM_NAME: human 5-HT6 receptor (Homo sapiens, UniProt P50406)
# Construct: expressed in transfected cells
# Sequence (P50406 whole entry): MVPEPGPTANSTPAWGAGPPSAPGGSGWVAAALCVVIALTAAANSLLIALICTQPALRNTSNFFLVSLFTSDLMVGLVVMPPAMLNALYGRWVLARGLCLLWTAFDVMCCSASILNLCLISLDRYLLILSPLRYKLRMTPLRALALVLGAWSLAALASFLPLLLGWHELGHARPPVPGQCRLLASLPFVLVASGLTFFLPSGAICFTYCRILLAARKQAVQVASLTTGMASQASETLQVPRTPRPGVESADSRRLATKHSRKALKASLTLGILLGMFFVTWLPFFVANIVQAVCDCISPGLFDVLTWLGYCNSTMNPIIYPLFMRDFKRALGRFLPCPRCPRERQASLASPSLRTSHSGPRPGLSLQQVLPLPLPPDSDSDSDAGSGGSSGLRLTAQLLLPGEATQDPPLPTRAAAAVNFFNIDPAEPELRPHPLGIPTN
# ASSAY_DETAILS: GPCR radioligand binding assay, [3H]-LSD displacement, HEK293 membranes
# CONDITIONS: 1 = hit, 0 = no hit; tested at 10 µM, hit = 50% or stronger inhibition

STRUCTURE_STRING	experimental hit status, 5-HT6
Nc1nnc2ccccn12	0
c1ccc2[nH]ccc2c1	0
c1cnc2ncccc2c1	0
Cc1cc2ccccc2nc1N	0
c1cnc2cccnc2c1	0

---

# SYSTEM_NAME: human 5-HT6 receptor (Homo sapiens, UniProt P50406)
# Construct: expressed in transfected cells
# ASSAY_DETAILS: GPCR radioligand binding assay, [3H]-LSD displacement, HEK293 membranes
# CONDITIONS: 5-HT6; average of exp_1 and exp_2
Could you mark each record Criterion met if its %inh 5-HT6 average falls strictly under 30%, and Criterion not met if it equals or exceeds it?

COMPOUND	QUALITATIVE_LABEL
O=C(Nc1ccccc1)C1CC1	Criterion not met
O=C(CN1CCCC1)c1ccccc1Cl	Criterion met
O=C1CCN(c2ccncc2)CC1	Criterion met
O=C1CNCCN1c1ccccc1	Criterion not met
CS(=O)(=O)c1ccc(N2CCNCC2)cc1	Criterion met
CCc1ccc(NC2=NCCCS2)cc1 [D2]	Criterion met
Cc1ccc(-c2ccc(O)cc2)cc1	Criterion not met

---

# SYSTEM_NAME: bovine factor Xa (Bos taurus, UniProt P00743)
# Construct: bovine factor Xa, Chromogenix, 2 nkat/mL; purchased Chromogenix
# Sequence (P00743 234-492 limits assumed): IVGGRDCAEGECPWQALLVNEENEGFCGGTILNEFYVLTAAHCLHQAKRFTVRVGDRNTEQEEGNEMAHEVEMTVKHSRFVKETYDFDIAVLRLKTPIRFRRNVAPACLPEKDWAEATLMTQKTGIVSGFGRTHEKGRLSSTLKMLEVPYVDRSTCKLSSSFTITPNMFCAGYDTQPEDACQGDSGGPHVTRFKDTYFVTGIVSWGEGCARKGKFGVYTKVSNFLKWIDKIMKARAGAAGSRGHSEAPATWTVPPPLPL
# Sequence (P00743 41-180 partner limits assumed): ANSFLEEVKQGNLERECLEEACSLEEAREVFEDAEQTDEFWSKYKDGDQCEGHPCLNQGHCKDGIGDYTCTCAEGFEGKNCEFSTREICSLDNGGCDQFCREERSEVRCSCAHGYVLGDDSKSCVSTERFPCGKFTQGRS
# ASSAY_DETAILS: Protease inhibitory assay, chromogenic substrate S-2222
# Assay type: biochemical
# CONDITIONS: FactorXa primary screening; substrate 100 µM; cmpd conc 200 µM; replicate values

STRUCTURE_STRING	vinit
O=C(c1ccccc1F)N1CCNCC1	11.3
Nc1ccc(-c2ccccc2)cc1C(=O)O	16.3
Nc1nnc2ccccn12	17.929
O=C1CCC(=O)N(c2ccccc2)N1	16.4

---

# SYSTEM_NAME: human 5-HT1A receptor (Homo sapiens)
# Construct: expressed in transfected cells
# ASSAY_DETAILS: GPCR radioligand binding assay, [3H]-8-OH-DPAT displacement, HEK293 membranes
# CONDITIONS: 5-HT1A; replicate exp_2
Attribute: %inh 5-HT1A exp_2

COMPOUND	SYSTEM_NAME	%inh 5-HT1A exp_2 [%]
CC(CN)N1CCc2sccc2C1 (stereo not shown) [F9]	human 5-HT1A receptor (Homo sapiens)	36
O=C1CNCCN1c1ccccc1 [B2]	human 5-HT1A receptor (Homo sapiens)	0
c1ccc2oc(C3CCCNC3)nc2c1 (stereo not shown) [D10]	human 5-HT1A receptor (Homo sapiens)	80
Nc1ccc(SC(F)F)cc1 [D1]	human 5-HT1A receptor (Homo sapiens)	-25
O=C1NC(=O)C2(CCc3ccccc32)N1 (stereo not shown) [B7]	human 5-HT1A receptor (Homo sapiens)	-1.44
CCN(CC)c1cccc(C)c1 [E4]	human 5-HT1A receptor (Homo sapiens)	4
O=C(c1ccccc1)N1CCC(CO)CC1 [H9]	human 5-HT1A receptor (Homo sapiens)	7
